measured-target: Full-length human SMYD2 (residues 1-433), wild type (human, UniProt Q9NRG4 1-433)
Sequence (Q9NRG4 whole entry, the tested form may be a part): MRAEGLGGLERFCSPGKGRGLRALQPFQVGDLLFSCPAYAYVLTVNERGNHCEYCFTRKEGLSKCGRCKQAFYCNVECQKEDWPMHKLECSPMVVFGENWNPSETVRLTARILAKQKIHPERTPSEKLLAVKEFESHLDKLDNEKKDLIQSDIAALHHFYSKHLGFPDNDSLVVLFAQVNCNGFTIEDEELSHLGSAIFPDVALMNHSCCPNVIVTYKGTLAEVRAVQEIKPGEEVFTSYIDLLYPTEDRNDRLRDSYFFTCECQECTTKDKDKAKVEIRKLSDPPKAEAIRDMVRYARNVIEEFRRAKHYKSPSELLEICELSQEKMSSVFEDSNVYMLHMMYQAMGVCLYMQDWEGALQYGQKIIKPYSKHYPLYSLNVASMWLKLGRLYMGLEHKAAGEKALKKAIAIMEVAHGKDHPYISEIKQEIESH
measurement-description: ITC; two-site model, KD2 (second site)
value-kind: pKd
pKd here: minus log base 10 of the concentration, concentration in moles per litre.

Entry RMKLTLKGGAAVD [PARP1 peptide (13-residue synthetic peptide, human PARP1 residues 522-534)] ; pKd = 4.74
